Molecular target: CD28 (human) (UniProt P10747)
Assay: flow cytometry, Jurkat cells (CD28)
Measured attribute: MFI at 33.3 nM (MFI)
I only need the number, in MFI, no unit after it.

Exercise: Give a short answer stating reported MFI at 33.3 nM for variant CD80 E35D/M47L/A71G/L85M/F92Y (Fc fusion) VIHVTKEVKEVATLSCGHNVSVEELAQTRIYWQKDKKMVLTMMSGDLNIWPEYKNRTIFDITNNLSIVILGLRPSDEGTYECVVMKYEKDAYKREHLAEVT .
Key: 2460

Exercise: For the binder variant CD80 E35D/M47V/N48K/V68M/K89N (Fc fusion) VIHVTKEVKEVATLSCGHNVSVEELAQTRIYWQKDKKMVLTMMSGDVKIWPEYKNRTIFDITNNLSIMILALRPSDEGTYECVVLKYENDAFKREHLAEVT , report MFI at 33.3 nM.
Key: 11700

Exercise: Provide one value: measured MFI at 33.3 nM of CD80 variant A26E/Q33R/E35D/M47L/L85Q IgV-Fc (Fc fusion) VIHVTKEVKEVATLSCGHNVSVEELEQTRIYWRKDKKMVLTMMSGDLNIWPEYKNRTIFDITNNLSIVILALRPSDEGTYECVVQKYEKDAFKREHLAEVT
Key: 264

Exercise: Identify MFI at 33.3 nM associated with the binder CD80 variant A26E/Q33L/E35D/M47L/L85Q IgV-Fc (Fc fusion) VIHVTKEVKEVATLSCGHNVSVEELEQTRIYWLKDKKMVLTMMSGDLNIWPEYKNRTIFDITNNLSIVILALRPSDEGTYECVVQKYEKDAFKREHLAEVT
Key: 274

Exercise: Answer with the recorded MFI at 33.3 nM of CD80 variant H18Y/Q33L/E35D/M47I IgV-Fc (Fc fusion) VIHVTKEVKEVATLSCGYNVSVEELAQTRIYWLKDKKMVLTMMSGDINIWPEYKNRTIFDITNNLSIVILALRPSDEGTYECVVLKYEKDAFKREHLAEVT only.
Key: 295

Exercise: Give MFI at 33.3 nM for CD80 variant V22A/E35D/V68E/A71D IgV-Fc (Fc fusion) VIHVTKEVKEVATLSCGHNVSAEELAQTRIYWQKDKKMVLTMMSGDMNIWPEYKNRTIFDITNNLSIEILDLRPSDEGTYECVVLKYEKDAFKREHLAEVT
Key: 14000

Exercise: State its MFI at 33.3 nM for this binder: CD80 variant V22A/E23D/Q33L/E35D/M47V IgV-Fc (Fc fusion) VIHVTKEVKEVATLSCGHNVSADELAQTRIYWLKDKKMVLTMMSGDVNIWPEYKNRTIFDITNNLSIVILALRPSDEGTYECVVLKYEKDAFKREHLAEVT
Key: 274
